- ASSAYED_SYSTEM: Phospho EGFR LRCS (BaF3-LRCS cell line) (Homo sapiens, UniProt P00533, C797S/L858R)
- Construct: host or cells: BaF3 (BaF3-LRCS), kept under puromycin selection
- Sequence (P00533 25-1210 C797S/L858R): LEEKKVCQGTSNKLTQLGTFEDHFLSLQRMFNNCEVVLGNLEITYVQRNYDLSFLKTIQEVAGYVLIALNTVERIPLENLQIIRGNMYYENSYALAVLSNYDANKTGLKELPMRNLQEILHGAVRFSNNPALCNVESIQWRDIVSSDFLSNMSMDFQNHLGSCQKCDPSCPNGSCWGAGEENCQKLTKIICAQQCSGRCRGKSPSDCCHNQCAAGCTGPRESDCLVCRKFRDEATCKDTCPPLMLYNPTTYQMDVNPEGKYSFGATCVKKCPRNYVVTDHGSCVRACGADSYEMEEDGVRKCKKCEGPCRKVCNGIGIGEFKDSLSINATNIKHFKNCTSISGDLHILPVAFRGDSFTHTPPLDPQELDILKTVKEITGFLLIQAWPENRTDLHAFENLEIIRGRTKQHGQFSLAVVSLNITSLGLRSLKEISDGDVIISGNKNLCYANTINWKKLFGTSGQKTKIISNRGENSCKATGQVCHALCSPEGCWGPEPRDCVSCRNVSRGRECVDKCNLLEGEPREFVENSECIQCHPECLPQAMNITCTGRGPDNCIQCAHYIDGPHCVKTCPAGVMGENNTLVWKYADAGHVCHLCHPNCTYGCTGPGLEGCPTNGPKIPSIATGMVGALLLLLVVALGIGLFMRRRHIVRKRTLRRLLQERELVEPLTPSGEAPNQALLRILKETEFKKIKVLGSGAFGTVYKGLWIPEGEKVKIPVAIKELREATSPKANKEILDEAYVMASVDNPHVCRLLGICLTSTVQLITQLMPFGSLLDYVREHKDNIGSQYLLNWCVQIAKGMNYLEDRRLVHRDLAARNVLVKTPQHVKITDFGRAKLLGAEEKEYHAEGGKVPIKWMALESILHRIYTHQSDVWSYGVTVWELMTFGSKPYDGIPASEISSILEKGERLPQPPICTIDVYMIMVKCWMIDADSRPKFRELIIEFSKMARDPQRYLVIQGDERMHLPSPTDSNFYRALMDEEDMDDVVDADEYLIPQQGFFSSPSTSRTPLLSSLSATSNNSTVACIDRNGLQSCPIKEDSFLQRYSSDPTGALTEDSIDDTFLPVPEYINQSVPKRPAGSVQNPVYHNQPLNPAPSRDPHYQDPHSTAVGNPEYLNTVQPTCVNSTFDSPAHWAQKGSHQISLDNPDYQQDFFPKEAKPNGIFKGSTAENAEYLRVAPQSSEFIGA
- PROTOCOL_DESCRIPTION: HTRF Phospho EGFR LRCS Assay (Cellular)
- Assay type: cell-based
- MEASUREMENT_PARAMETERS: BaF3-LRCS cells, 4 hours incubation, HTRF phospho-EGFR readout
pIC50: −log10 of the molar value.
REPORTED_ENDPOINT: pIC50

(a) Cc1c(C#Cc2ccc(CN3CCC(CO)CC3)cc2)cc(C(F)(F)F)c2cn(C(C(=O)Nc3nccs3)c3ncn4c3CCC4(C)C)nc12 (stereo not drawn)
(b) Cc1c(C#Cc2ccc(CN3CCC(CO)CC3)cc2)cc(C(F)F)c2cn(C(C(=O)Nc3nccs3)c3ncn4c3CCC4)nc12 (stereo not drawn)
For the pair a and b , which entry has the numerically smaller recorded pIC50? Field: selected label. Fill in the label of the entry you choose.
b

These data points were gathered from patent US12686682B2.
